# test: Drug uptake in liver of mouse xenografted with human NCI-H2122 cells at 50 mg/kg, ip after 3 hrs by LC-MS/MS analysis
# Assay type: ADME, organism-based
# experimental.parameters: read-out: Drug uptake
concentration at 3 h for assorted compounds
quantity.measured: concentration at 3 h (ng/g)

>>> recorded_measurement("Cn1nc(-c2ccccc2)c2c1OC(N)=C(C#N)C2c1ccc(-n2ccnc2)cc1 (centres undefined)")
980
>>> recorded_measurement("COc1ccc(OC)c(C2C(C#N)=C(N)Oc3[nH]nc(-c4ccc5ccccc5c4)c32)c1 (centres undefined)")
39700
>>> recorded_measurement("CCCCC(=O)C1c2ccccc2NC2=C(C(=O)CCC2)C1c1ccccc1Cl (centres undefined)")
11500
>>> recorded_measurement("Cc1nn(C)c2c1C(c1ccc(C(F)(F)F)cc1)C(C#N)=C(N)O2 (centres undefined)")
4070

---

# test: Half life in ip dosed mouse plasma
# Type: ADME, organism-based
quantity.measured: half-life

>>> recorded_measurement("Cn1nc(-c2ccccc2)c2c1OC(N)=C(C#N)C2c1ccc(-n2ccnc2)cc1 (configuration not stated)")
"< 1.5 h"
>>> recorded_measurement("Cc1nn(C)c2c1C(c1ccc(C(F)(F)F)cc1)C(C#N)=C(N)O2 (configuration not stated)")
"< 1.5 h"

---

concentration at 3 h for assorted molecules
# test: Plasma concentration in mouse xenografted with human NCI-H2122 cells at 50 mg/kg, ip after 3 hrs by LC-MS/MS analysis
# Format: ADME, organism-based
quantity.measured: concentration at 3 h

>>> recorded_measurement("Cc1nn(C)c2c1C(c1ccc(C(F)(F)F)cc1)C(C#N)=C(N)O2 (centres undefined)")
"5640 ng/mL"
>>> recorded_measurement("COc1ccc(OC)c(C2C(C#N)=C(N)Oc3[nH]nc(-c4ccc5ccccc5c4)c32)c1 (centres undefined)")
"3910 ng/mL"
>>> recorded_measurement("CCCCC(=O)C1c2ccccc2NC2=C(C(=O)CCC2)C1c1ccccc1Cl (centres undefined)")
"3950 ng/mL"
>>> recorded_measurement("Cn1nc(-c2ccccc2)c2c1OC(N)=C(C#N)C2c1ccc(-n2ccnc2)cc1 (centres undefined)")
"490 ng/mL"

---

# test: Drug uptake in kidney of mouse xenografted with human NCI-H2122 cells at 50 mg/kg, ip after 3 hrs by LC-MS/MS analysis
# Assay type: ADME, organism-based
# experimental.parameters: read-out: Drug uptake
quantity.measured: concentration at 3 h (ng/g)

>>> recorded_measurement("Cc1nn(C)c2c1C(c1ccc(C(F)(F)F)cc1)C(C#N)=C(N)O2 (centres undefined)")
2400
>>> recorded_measurement("Cn1nc(-c2ccccc2)c2c1OC(N)=C(C#N)C2c1ccc(-n2ccnc2)cc1 (centres undefined)")
630
>>> recorded_measurement("CCCCC(=O)C1c2ccccc2NC2=C(C(=O)CCC2)C1c1ccccc1Cl (centres undefined)")
5730
>>> recorded_measurement("COc1ccc(OC)c(C2C(C#N)=C(N)Oc3[nH]nc(-c4ccc5ccccc5c4)c32)c1 (centres undefined)")
24600
